Biological target: pancreatic lipase (PL) (Sus scrofa, UniProt P00591)
Construct: lipase (porcine pancreas); purchased Shanghai Yuanye Co., Ltd., Shanghai, China; host or cells: porcine pancreas
Test: Fluorescence quenching and binding interaction with PL (Stern-Volmer, double logarithmic, Van't Hoff)
Parameters: species or system porcine
Conditions: T 304 K
As shown below, each of these compounds has a reported Ksv (fluorescence quenching constant) value.

Would you please look over these solved cases?
INSERT INTO measurements (given_smiles, study_system, reported_result) VALUES
  ('Nc1ccc(-c2c3nc(c(-c4ccc(N)cc4)c4ccc([nH]4)c(-c4ccc(N)cc4)c4nc(c(-c5ccc(N)cc5)c5ccc2[nH]5)C=C4)C=C3)cc1', 'pancreatic lipase (PL) (Sus scrofa, UniProt P00591)', '8.80 ± 0.06 ×10^4 L/mol'),
  ('O=C([O-])c1ccc(C2=C3C=CC(=N3)C(c3ccc(C(=O)[O-])cc3)=C3C=CC(=N3)C(=c3ccc(=C([O-])[O-])cc3)c3ccc([n-]3)C(c3ccc(C(=O)[O-])cc3)=C3C=CC2=N3)cc1.[67Cu+2].[H+].[H+].[H+].[H+]', 'pancreatic lipase (PL) (Sus scrofa, UniProt P00591)', '2.33 ± 0.03 ×10^4 L/mol'),
  ('O=C(O)c1ccc(-c2c3nc(c(-c4ccc(C(=O)O)cc4)c4ccc([nH]4)c(-c4ccc(C(=O)O)cc4)c4nc(c(-c5ccc(C(=O)O)cc5)c5ccc2[nH]5)C=C4)C=C3)cc1', 'pancreatic lipase (PL) (Sus scrofa, UniProt P00591)', '4.59 ± 0.06 ×10^4 L/mol');

// moving on: another record for Ksv (fluorescence quenching constant)
### Prompt State the recorded Ksv (fluorescence quenching constant) for this entry: Oc1ccc(-c2c3nc(c(-c4ccc(O)cc4)c4ccc([nH]4)c(-c4ccc(O)cc4)c4nc(c(-c5ccc(O)cc5)c5ccc2[nH]5)C=C4)C=C3)cc1
### Response 1.17 ± 0.03 ×10^4 L/mol

====

Target: pancreatic lipase (PL) (Sus scrofa)
Construct: lipase (porcine pancreas); purchased Shanghai Yuanye Co., Ltd., Shanghai, China; host or cells: porcine pancreas
Sequence (P00591 1-450): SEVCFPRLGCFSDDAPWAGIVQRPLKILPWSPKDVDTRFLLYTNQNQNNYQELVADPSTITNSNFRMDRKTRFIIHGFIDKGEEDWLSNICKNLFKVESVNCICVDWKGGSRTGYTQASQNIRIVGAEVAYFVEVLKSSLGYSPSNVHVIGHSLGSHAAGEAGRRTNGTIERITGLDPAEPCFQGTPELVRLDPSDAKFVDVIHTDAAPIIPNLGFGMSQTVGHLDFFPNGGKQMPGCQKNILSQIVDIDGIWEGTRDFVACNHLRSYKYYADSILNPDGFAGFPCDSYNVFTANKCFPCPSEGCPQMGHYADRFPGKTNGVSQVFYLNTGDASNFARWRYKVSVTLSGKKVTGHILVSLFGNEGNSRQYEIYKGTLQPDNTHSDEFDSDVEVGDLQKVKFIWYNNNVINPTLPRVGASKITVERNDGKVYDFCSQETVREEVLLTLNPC
Assay: Fluorescence quenching and binding interaction with PL (Stern-Volmer, double logarithmic, Van't Hoff)
Design: species or system porcine
Details: Stern-Volmer analysis, 298-310 K
Readout Kind: Fluorescence quenching mechanism on PL

INSERT INTO measurements (compound, reported_result) VALUES
  ('O=C([O-])c1ccc(C2=C3C=CC(=N3)C(c3ccc(C(=O)[O-])cc3)=C3C=CC(=N3)C(=c3ccc(=C([O-])[O-])cc3)c3ccc([n-]3)C(c3ccc(C(=O)[O-])cc3)=C3C=CC2=N3)cc1.[67Cu+2].[H+].[H+].[H+].[H+] [Cu-TCPP]', 'static quenching'),
  ('Nc1ccc(-c2c3nc(c(-c4ccc(N)cc4)c4ccc([nH]4)c(-c4ccc(N)cc4)c4nc(c(-c5ccc(N)cc5)c5ccc2[nH]5)C=C4)C=C3)cc1 [TAPP]', 'static quenching'),
  ('O=C(O)c1ccc(-c2c3nc(c(-c4ccc(C(=O)O)cc4)c4ccc([nH]4)c(-c4ccc(C(=O)O)cc4)c4nc(c(-c5ccc(C(=O)O)cc5)c5ccc2[nH]5)C=C4)C=C3)cc1 [TCPP, meso-Tetra (4-carboxyphenyl) porphine]', 'static quenching');
